// provenance: PubChem BioAssay (NCI)

Tested on: RXF 393 renal
experimentalProtocol: NCI-60 one-dose screen, 48 h (100 = growth as untreated, 0 = no growth, -100 = all killed)
conditionsUsed: 10 µM unless noted
The panel holds about 83,000 compounds, 20% with a hit somewhere; the sample as a whole holds those more often.
quantityMeasured: growth (%)
Give your result in % as a bare value.

Examples from the recorded data:
{"smilesRecord": "c1ccc(C2=NN[C@H](c3cn(-c4ccccc4)nc3-c3ccccc3)C2)cc1", "quantityMeasured": "growth", "unitsLabel": "%", "measured": 32.1}
{"smilesRecord": "COc1ccc(/C=C2\\COc3ccc(O)cc3C2=O)c(OC)c1OC", "quantityMeasured": "growth", "unitsLabel": "%", "measured": 111}
{"smilesRecord": "O=C(NCCCCNC(=O)OCc1ccc2c(Cl)cc(Cl)c(O)c2n1)OCc1ccc2c(Cl)cc(Cl)c(O)c2n1", "quantityMeasured": "growth", "unitsLabel": "%", "measured": 27}

Qu. What does the data say about its growth? Entry: "CN1C(=O)/C(=C/c2ccc(C(=O)Nc3ncc(Cc4ccc(Cl)cc4)s3)cc2)SC1=S"
Ans. 48.3

Qu. What does the data say about its growth? Entry: "CCOC(=O)c1c2c(n3ccc(C)cc13)C(=O)c1ccccc1C2=O"
Ans. 95.6

* * *

System: OVCAR-3 ovarian
experimentalProtocol: NCI-60 one-dose screen, 48 h (100 = growth as untreated, 0 = no growth, -100 = all killed)
conditionsUsed: 10 µM unless noted
About 83,000 compounds went through this panel and 20% of them were active in at least one assay; those are over-represented in the sample as a whole.
So basically: is growth under 30%? Then True. Not under? Then False.

{"compound": "Cn1cc(-c2nonc2-c2c[nH]c3ccc(Br)cc23)c2cc(Br)ccc21", "groupLabel": "False"}
{"compound": "CCN1C(=O)N(CC)C2C1NN=c1s/c(=C\\c3ccc(Cl)cc3Cl)c(=O)n12 (stereo not given)", "groupLabel": "True"}
{"compound": "CN1C(=O)/C(=C/c2ccc(C(=O)Nc3ncc(Cc4ccc(Cl)cc4)s3)cc2)SC1=S", "groupLabel": "True"}

Qu. Does this compound meet the criterion growth < 30%? CC1=C(C(=O)OC(C)C)C(c2ccc3c(c2)OCO3)NC(=S)N1 (stereo not given)
Ans. False

Qu. Does this compound meet the criterion growth < 30%? "CN(C)CC(=O)Nc1ccc2ncnc(Nc3ccc(Oc4cccc(C(F)(F)F)c4)c(Cl)c3)c2c1"
Ans. False

* * *

System: HCT-15 colon
experimentalProtocol: NCI-60 one-dose screen, 48 h
conditionsUsed: 10 µM unless noted
About 83,000 compounds went through this panel and 20% of them were active in at least one assay; those are over-represented in the sample as a whole. Calls of active or inactive are those of the source. The calls were made as follows: active = growth percent below 10; inactive = the rest.
Tick one outcome: label 1 for active, label 0 for inactive

Illustrative cases are given below, each with its answer.
{"molecule": "N#Cc1c(-c2ccccc2)cc(-c2ccccc2)n(CCCCCC(=O)Nc2ccccc2N)c1=O", "groupLabel": "label 0"}
{"molecule": "CC(C)N1CCN(Cc2ccc3c(NNC(=O)c4ccccc4)nc4cc(F)ccc4n23)CC1", "groupLabel": "label 0"}

Qu. Hi, do you know how O=C(CI)NC1Oc2ccccc2-c2oc(=O)c(-c3ccccc3)cc21 (stereo not given) came out in this test?
Ans. label 1

Qu. Hi, do you know how "O=C1c2cccnc2C(=O)c2c1c(C(=O)NCCn1ccnc1)c1ccccn21" came out in this test?
Ans. label 0

Qu. Hi, do you know how "CCOC(=O)c1c(C)c2c(n1C)CSc1cc(C(=O)c3ccccc3)c(=O)[nH]c1-2" came out in this test?
Ans. label 0
